B1: Limonene-1,2-epoxide hydrolase, Q9ZAG3 (parent)
chain: MTSKIEQPRWASKDSAAGAASTPDEKIVLEFMDALTSNDAAKLIEYFAEDTMYQNMPLPPAYGRDAVEQTLAGLFTVMSIDAVETFHIGSSNGLVYTERVDVLRALPTGKSYNLSILGVFQLTEGKITGWRDYFDLREFEEAVDLPLRG

# Variants of: B1
# conditionDescription: Rhodococcus erythropolis; pH 7.1; Thermal; Fluorescence; Potassium phosphate 50mM; transition: 2; reversible: no; structure 1NWW; whole UniProt chain shown
reportedEndpoint: Tm (°C)
Report the figure in °C without appending any unit label.

Worked examples follow.
Short answer for Y112C A142C : Tm was 56

Short answer for A41S : Tm was 49.1

Short answer for N92K : Tm was 56.1

Short answer for D65E : Tm was 49.3

Short answer for Q69R : Tm was 49.1

Short answer for E68Q : Tm was 49.3

Short answer for N92R : Tm was 50.6

Short answer for E45K : Tm was 50.8

Continuing:
Short answer for T85V : Tm was 55.6

Short answer for P57C D135C : Tm was 35

Short answer for S15P : Tm was 49

Short answer for S15K : Tm was 48.5

Short answer for T85P : Tm was 42.8

Short answer for K42R : Tm was 47.5

Short answer for E124R : Tm was 46

Short answer for A17C N92C : Tm was 64

Short answer for I5C E84C : Tm was 64

Short answer for K110R : Tm was 47.3

Short answer for A72R : Tm was 47

Short answer for D50P : Tm was 42.8

Short answer for D24C L122C : Tm was 36

Short answer for I44C E68C : Tm was 56

Short answer for A142R : Tm was 46

Short answer for K13P : Tm was 44.8
